Target chain: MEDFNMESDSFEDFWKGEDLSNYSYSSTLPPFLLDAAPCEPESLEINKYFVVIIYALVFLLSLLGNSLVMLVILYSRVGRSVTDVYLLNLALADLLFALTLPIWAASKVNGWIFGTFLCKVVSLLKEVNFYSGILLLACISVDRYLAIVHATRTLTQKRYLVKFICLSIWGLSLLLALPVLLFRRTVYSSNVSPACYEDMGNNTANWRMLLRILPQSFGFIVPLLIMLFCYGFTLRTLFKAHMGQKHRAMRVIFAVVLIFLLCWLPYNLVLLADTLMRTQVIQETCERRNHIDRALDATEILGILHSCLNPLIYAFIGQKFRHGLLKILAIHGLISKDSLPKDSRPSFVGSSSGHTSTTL
Measured Attribute: Ki (nM)

These recorded examples may help you get a feel for the data.
structure_string=CC[C@@H](Nc1c(Nc2cccc(C(N)=O)c2O)c(=O)c1=O)c1ccccc1 unit_tag=nM numeric_value=25
structure_string=CC[C@@H](Nc1c(Nc2cccc(C(=O)O)c2O)c(=O)c1=O)c1ccc(C)o1 unit_tag=nM numeric_value=12
structure_string=CC[C@@H](Nc1c(Nc2cc(C#N)cc(C(=O)N(C)C)c2O)c(=O)c1=O)c1ccccc1 unit_tag=nM numeric_value=3
structure_string=CC[C@@H](Nc1c(Nc2ccc(-c3ccccc3)c(C(=O)N(C)C)c2O)c(=O)c1=O)c1ccccc1 unit_tag=nM numeric_value=17
structure_string=CC[C@@H](Nc1c(Nc2cccc(C(=O)N3CC[C@H](O)C3)c2O)c(=O)c1=O)c1ccccc1 unit_tag=nM numeric_value=18

A: CC[C@@H](Nc1c(Nc2cccc(C(=O)NC3CC3)c2O)c(=O)c1=O)c1ccccc1
B: CC[C@@H](Nc1c(Nc2cc(C)cc(C(=O)N(C)C)c2O)c(=O)c1=O)c1ccccc1
C: CC[C@@H](Nc1c(Nc2cc(Br)cc(C(=O)N(C)C)c2O)c(=O)c1=O)c1cccs1
D: CC[C@@H](Nc1c(Nc2c(C)ccc(C(=O)N(C)C)c2O)c(=O)c1=O)c1ccccc1
E: CC[C@@H](Nc1c(Nc2cccc(C(=O)N3CC(O)C3)c2O)c(=O)c1=O)c1ccccc1
Qu. Reorder: Ki, max to min. In your reply, arrange the labels in the requested order.
Ans. B, C, A, E, D
(B: 203 nM, C: 61 nM, A: 34 nM, E: 20 nM, D: 4.5 nM)

I: CC[C@@H](Nc1c(Nc2cccc(C(=O)NC)c2O)c(=O)c1=O)c1ccccc1
II: CC[C@@H](Nc1c(Nc2cc(C)cc(C(=O)N(C)C)c2O)c(=O)c1=O)c1cccs1
Qu. Please tell me which of the two, I or II , has the higher reported Ki value. Bench note: the answer is the label of the chosen record.
Ans. II
(II: 76 nM, I: 28 nM)
